System: beta-arrestin 1 C-terminal peptide binding to AP2 beta2-adaptin appendage (human)
Test: inhibitors of beta-arrestin/AP2 binding, primary screen, biochemical, GPCR trafficking, flow cytometry (AID 504490);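 note: plate controls were DMSO wells for no effect and 5 µM unlabelled arrestin peptide for full effect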
Conditions: FITC-arrestin peptide / GST-AP2 beads, at 10 µM, stronger effect = higher value, AP2 beta2 appendage carries R879A mutation
Hit rate of the full screen: of about 340,000 compounds, about 1,100 (0.32%) were called active. What follows is part of a selection rich in actives, with near analogues and random picks from the rest.
Please provide measured inhibition for the entries that follow.
Numbers only here, please. The scale is %.

Lookup: Name the recorded inhibition of Cc1cccc(C(=O)OC(C)CN2CCCC2)c1 (stereo unspecified) , assay system beta-arrestin 1 C-terminal peptide binding to AP2 beta2-adaptin appendage (human).
Found: 14.8

Lookup: Name the recorded inhibition of COc1cccc(C2SCC(=O)N2c2cccc(C)c2)c1OC (stereo unspecified) , assay system beta-arrestin 1 C-terminal peptide binding to AP2 beta2-adaptin appendage (human).
Found: 3.87

Lookup: Name the recorded inhibition of COc1ccc([C@H]2CC(=O)C=C(c3ccc(C)cc3)C2)cc1 , assay system beta-arrestin 1 C-terminal peptide binding to AP2 beta2-adaptin appendage (human).
Found: 18.7

Lookup: Name the recorded inhibition of O=C(CCNC(=O)c1ccccc1Cl)NCc1ccco1 , assay system beta-arrestin 1 C-terminal peptide binding to AP2 beta2-adaptin appendage (human).
Found: -2.42

Lookup: Name the recorded inhibition of Cc1ccc(N(Cc2ccc(C(=O)Nc3ccccc3C(=O)NCc3ccco3)cc2)S(C)(=O)=O)cc1C , assay system beta-arrestin 1 C-terminal peptide binding to AP2 beta2-adaptin appendage (human).
Found: -0.75

Lookup: Name the recorded inhibition of Cc1cccc(Nc2ccccc2C(=O)NCc2ccco2)c1C , assay system beta-arrestin 1 C-terminal peptide binding to AP2 beta2-adaptin appendage (human).
Found: 99.8
